Listed next: entries and their corresponding pIC50.
# Subject Of Test: PIK3CB (Human) (UniProt P42338)
# Sequence (P42338 whole entry, looked up): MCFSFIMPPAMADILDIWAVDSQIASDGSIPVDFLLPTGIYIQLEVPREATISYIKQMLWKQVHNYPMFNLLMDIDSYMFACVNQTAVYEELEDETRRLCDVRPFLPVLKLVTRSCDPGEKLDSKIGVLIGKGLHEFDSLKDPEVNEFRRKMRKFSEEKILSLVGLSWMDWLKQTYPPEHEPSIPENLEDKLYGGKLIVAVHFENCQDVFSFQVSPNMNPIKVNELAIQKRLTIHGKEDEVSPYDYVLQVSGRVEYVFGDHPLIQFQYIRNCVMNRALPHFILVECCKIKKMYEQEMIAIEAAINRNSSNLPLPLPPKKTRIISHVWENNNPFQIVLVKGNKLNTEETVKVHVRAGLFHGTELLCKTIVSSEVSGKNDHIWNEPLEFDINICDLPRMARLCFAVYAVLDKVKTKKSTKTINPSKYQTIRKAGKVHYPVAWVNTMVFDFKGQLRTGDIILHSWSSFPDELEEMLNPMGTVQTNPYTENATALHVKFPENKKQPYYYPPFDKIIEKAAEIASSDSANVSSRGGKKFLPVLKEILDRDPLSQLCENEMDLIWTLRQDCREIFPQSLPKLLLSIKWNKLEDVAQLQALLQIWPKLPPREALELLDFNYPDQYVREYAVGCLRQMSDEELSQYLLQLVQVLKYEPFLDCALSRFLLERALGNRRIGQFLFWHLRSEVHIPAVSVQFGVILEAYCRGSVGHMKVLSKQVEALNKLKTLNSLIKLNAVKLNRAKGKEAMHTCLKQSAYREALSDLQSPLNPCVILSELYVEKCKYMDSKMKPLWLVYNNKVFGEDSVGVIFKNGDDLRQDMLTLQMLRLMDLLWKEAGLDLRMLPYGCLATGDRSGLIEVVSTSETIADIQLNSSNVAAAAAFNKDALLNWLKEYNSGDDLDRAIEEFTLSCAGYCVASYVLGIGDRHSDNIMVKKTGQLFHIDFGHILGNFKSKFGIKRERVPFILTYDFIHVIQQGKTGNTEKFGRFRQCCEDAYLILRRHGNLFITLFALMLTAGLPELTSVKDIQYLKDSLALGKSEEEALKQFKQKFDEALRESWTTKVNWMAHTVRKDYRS
# Test Summary: Assessment of PIK3CB Kinase Activity
pIC50: −log10 of the molar value.

Please review the entries below; each comes with its answer.
- Smiles Input: "COc1cc(-c2cccc3cc([C@H](C)Nc4nc(N)nc(C)c4C#N)n(-c4ccccc4)c(=O)c23)ccn1"
  pIC50: "6.00 to 7.00"
- Smiles Input: "C[C@H](Nc1nc(N)ncc1C#N)c1cc2cccc(-c3ccc(O)nc3)c2c(=O)n1-c1ccccc1"
  pIC50: "< 5.00"
- Smiles Input: "Cc1ncc(-c2cccc3cc([C@H](C)Nc4nc(N)ncc4C#N)n(C(C)C)c(=O)c23)cn1"
  pIC50: "< 5.00"

We now examine a further compound.
Entry C[C@H](Nc1nc(N)ncc1-c1cn[nH]c1)c1cc2cccc(Cl)c2c(=O)n1-c1ccccc1 — recorded pIC50 = < 5.00

###

# Subject Of Test: UniProtKB O00329
# Test Summary: Assessment of PIK3CD Kinase Activity
Value Kind: IC50

Please review the entries below; each comes with its answer.
- Smiles Input: "C[C@H](Nc1nc(N)ncc1C#N)c1cc2cccc(-c3ccnnc3)c2c(=O)n1-c1ccccc1"
  IC50: "< 100 nM"
- Smiles Input: "C[C@H](Nc1nc(N)ncc1C#N)c1cc2cccc(-c3cccc(N(C)C)c3)c2c(=O)n1-c1ccccc1"
  IC50: "< 100 nM"
- Smiles Input: "C[C@H](Nc1nc(N)ncc1C#N)c1cc2cccc(-c3ccc(S(N)(=O)=O)cc3)c2c(=O)n1-c1ccccc1"
  IC50: "< 100 nM"
- Smiles Input: "COc1ncc(-c2cccc3cc([C@H](C)Nc4nc(N)ncc4C(F)(F)F)n(-c4cccc(F)c4)c(=O)c23)cn1"
  IC50: "< 100 nM"

Entry C[C@H](Nc1nc(N)ncc1-c1cnc(S(C)(=O)=O)s1)c1cc2cccc(Cl)c2c(=O)n1-c1ccccc1 — recorded IC50 = < 100 nM

Entry C[C@H](Nc1nc(N)ncc1C#N)c1cc2cccc(-c3cccc(S(C)(=O)=O)c3)c2c(=O)n1-c1ccccc1 — recorded IC50 = < 100 nM

###

Listed next: entries and their corresponding pIC50.
# Subject Of Test: PIK3CA (human)
# Test Summary: Assessment of PIK3CA Kinase Activity
pIC50: −log10 of the molar value.

Please review the entries below; each comes with its answer.
- Smiles Input: "COc1ncc(-c2cccc3cc([C@H](C)Nc4nc(N)ncc4C#N)n(-c4cccc(F)c4)c(=O)c23)cn1"
  Subject Of Test: "PIK3CA (human)"
  pIC50: "< 5.00"
- Smiles Input: "C[C@H](Nc1cc(Cl)ncn1)c1cc2cccc(Cl)c2c(=O)n1-c1ccccc1"
  Subject Of Test: "PIK3CA (human)"
  pIC50: "< 5.00"
- Smiles Input: "C[C@H](Nc1nc(N)ncc1C#N)c1cc2cccc(CC#N)c2c(=O)n1-c1ccccc1"
  Subject Of Test: "PIK3CA (human)"
  pIC50: "< 5.00"
- Smiles Input: "COc1ncc(-c2cccc3cc([C@H](C)Nc4nc(N)ncc4C(N)=O)n(-c4ccccc4)c(=O)c23)cn1"
  Subject Of Test: "PIK3CA (human)"
  pIC50: "< 5.00"

We now examine a further compound.
Entry C[C@H](Nc1nc(N)ncc1C#N)c1cc2cccc(-c3cnc4[nH]ccc4c3)c2c(=O)n1-c1cccc(F)c1 — recorded pIC50 = 6.00 to 7.00

###

# Subject Of Test: PIK3CG (human) (UniProt P48736)
# Sequence (P48736 whole entry, looked up): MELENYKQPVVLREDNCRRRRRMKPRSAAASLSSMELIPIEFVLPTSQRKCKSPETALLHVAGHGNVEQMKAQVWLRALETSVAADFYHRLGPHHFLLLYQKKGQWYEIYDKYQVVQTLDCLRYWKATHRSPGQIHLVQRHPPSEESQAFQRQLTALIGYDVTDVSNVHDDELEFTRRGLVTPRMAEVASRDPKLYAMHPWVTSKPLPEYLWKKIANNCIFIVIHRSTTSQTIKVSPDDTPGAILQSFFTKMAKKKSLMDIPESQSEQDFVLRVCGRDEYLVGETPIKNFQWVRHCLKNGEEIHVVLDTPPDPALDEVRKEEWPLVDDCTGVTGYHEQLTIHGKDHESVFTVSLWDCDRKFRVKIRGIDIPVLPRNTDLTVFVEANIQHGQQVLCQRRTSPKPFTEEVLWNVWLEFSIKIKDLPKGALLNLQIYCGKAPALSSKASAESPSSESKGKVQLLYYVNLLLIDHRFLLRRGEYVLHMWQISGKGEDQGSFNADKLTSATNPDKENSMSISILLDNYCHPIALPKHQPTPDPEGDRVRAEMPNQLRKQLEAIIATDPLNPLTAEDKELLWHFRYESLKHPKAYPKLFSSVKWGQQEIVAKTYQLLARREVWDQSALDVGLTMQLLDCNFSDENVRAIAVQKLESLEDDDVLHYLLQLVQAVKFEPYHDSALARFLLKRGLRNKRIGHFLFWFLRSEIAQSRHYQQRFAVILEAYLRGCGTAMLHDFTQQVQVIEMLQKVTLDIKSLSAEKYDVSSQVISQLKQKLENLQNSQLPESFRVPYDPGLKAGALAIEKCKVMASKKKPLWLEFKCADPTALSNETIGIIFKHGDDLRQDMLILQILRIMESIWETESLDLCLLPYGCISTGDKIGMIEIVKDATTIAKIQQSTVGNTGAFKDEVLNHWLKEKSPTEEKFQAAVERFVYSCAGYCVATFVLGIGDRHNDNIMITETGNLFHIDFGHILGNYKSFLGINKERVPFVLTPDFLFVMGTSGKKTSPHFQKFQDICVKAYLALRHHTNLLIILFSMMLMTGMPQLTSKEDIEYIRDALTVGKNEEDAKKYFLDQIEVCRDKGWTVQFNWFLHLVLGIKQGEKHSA
pIC50: −log10 of the molar value.
Value Kind: pIC50

PIK3CG (human) (UniProt P48736) pIC50 of CCS(=O)(=O)c1cccc(-c2cnc(N)nc2N[C@@H](C)c2cc3cccc(Cl)c3c(=O)n2-c2ccccc2)c1 is < 5.00

PIK3CG (human) (UniProt P48736) pIC50 of C[C@H](Nc1nc(N)ncc1C#N)c1cc2ccccc2c(=O)n1-c1ccccc1 is > 7.00

PIK3CG (human) (UniProt P48736) pIC50 of C[C@H](Nc1nc(N)ncc1C#N)c1cc2cccc(Cl)c2c(=O)n1-c1ccccc1 is > 7.00

PIK3CG (human) (UniProt P48736) pIC50 of CCn1c([C@H](C)Nc2nc(N)ncc2C#N)cc2cccc(Cl)c2c1=O is > 7.00

PIK3CG (human) (UniProt P48736) pIC50 of C[C@H](Nc1nc(N)ncc1-c1cscn1)c1cc2cccc(-c3ccc(=O)n(C)c3)c2c(=O)n1-c1ccccc1 is > 7.00

PIK3CG (human) (UniProt P48736) pIC50 of C[C@H](Nc1nc(N)ncc1C#N)c1cc2cccc(Cl)c2c(=O)n1Cc1ccccc1 is 6.00 to 7.00

PIK3CG (human) (UniProt P48736) pIC50 of C[C@H](Nc1nc(N)ncc1C#N)c1cc2cccc(-c3cncc(N(C)S(C)(=O)=O)c3)c2c(=O)n1-c1ccccc1 is > 7.00

PIK3CG (human) (UniProt P48736) pIC50 of C[C@H](Nc1nc(N)ncc1C#N)c1cc2cccc(-c3cccc(F)c3)c2c(=O)n1-c1ccccc1 is > 7.00

###

Listed next: entries and their corresponding IC50.
# Subject Of Test: PIK3CD (Human) (UniProt O00329)
# Sequence (O00329 whole entry, looked up): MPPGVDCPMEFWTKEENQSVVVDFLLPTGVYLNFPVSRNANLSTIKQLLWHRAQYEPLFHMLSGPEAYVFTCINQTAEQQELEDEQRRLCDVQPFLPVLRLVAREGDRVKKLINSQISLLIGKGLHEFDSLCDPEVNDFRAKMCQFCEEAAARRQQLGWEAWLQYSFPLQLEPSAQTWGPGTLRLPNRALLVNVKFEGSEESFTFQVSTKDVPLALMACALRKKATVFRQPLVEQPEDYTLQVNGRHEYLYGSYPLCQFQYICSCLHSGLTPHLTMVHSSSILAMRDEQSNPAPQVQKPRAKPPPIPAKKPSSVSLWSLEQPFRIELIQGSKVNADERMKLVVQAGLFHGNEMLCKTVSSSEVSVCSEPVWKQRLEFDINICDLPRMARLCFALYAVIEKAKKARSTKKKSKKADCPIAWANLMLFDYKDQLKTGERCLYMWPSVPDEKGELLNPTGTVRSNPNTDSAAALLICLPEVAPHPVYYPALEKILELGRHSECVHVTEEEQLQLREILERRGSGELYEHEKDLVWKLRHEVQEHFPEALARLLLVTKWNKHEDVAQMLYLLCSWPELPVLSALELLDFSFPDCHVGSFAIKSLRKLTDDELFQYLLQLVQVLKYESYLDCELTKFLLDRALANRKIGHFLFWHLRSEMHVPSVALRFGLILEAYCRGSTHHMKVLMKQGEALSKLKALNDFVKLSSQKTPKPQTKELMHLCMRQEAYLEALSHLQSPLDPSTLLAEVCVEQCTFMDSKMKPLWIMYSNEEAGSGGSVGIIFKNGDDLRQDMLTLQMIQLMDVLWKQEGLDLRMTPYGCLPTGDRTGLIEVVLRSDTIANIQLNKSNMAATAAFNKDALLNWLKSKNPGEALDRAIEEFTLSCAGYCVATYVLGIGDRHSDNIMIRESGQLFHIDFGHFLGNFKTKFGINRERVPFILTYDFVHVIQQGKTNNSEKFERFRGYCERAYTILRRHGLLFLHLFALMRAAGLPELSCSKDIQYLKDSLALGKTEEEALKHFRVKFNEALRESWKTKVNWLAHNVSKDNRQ
# Test Summary: Assessment of PIK3CD Kinase Activity

PIK3CD (Human) (UniProt O00329) IC50 of C[C@H](Nc1nc(N)ncc1C#N)c1cc2cccc(Cl)c2c(=O)n1-c1cc(F)cc(F)c1 is 100 to 1000 nM

PIK3CD (Human) (UniProt O00329) IC50 of C[C@H](Nc1nc(N)ncc1C#N)c1cc2cccc(Oc3ccccc3)c2c(=O)n1-c1ccccc1 is < 100 nM

PIK3CD (Human) (UniProt O00329) IC50 of CCOc1nc(-c2cnc(N)nc2N[C@@H](C)c2cc3cccc(Cl)c3c(=O)n2-c2ccccc2)cs1 is < 100 nM

PIK3CD (Human) (UniProt O00329) IC50 of C[C@H](Nc1nc(N)ncc1C#N)c1cc2cccc(Cl)c2c(=O)n1-c1ccc2c(c1)OCO2 is 100 to 1000 nM

PIK3CD (Human) (UniProt O00329) IC50 of C[C@H](Nc1nc(N)ncc1C#N)c1cc2cccc(Cl)c2c(=O)n1-c1cc(F)ccc1F is < 100 nM

###

Listed next: entries and their corresponding pIC50.
# Subject Of Test: PIK3CA (human)
# Test Summary: Assessment of PIK3CA Kinase Activity in SKOV-3 Cells
pIC50: −log10 of the molar value.

- Smiles Input: "C[C@H](Nc1nc(N)ncc1C#N)c1cc2cccc(Cl)c2c(C(=O)NC2CCOCC2)n1"
  Subject Of Test: "PIK3CA (human)"
  Reported: "< 5.00"
- Smiles Input: "CCOc1nc(-c2cnc(N)nc2N[C@@H](C)c2cc3cccc(-c4ccc(=O)n(C)c4)c3c(=O)n2-c2ccccc2)cs1"
  Subject Of Test: "PIK3CA (human)"
  Reported: "6.00 to 7.00"
- Smiles Input: "Cc1ncc(-c2cccc3cc([C@H](C)Nc4nc(N)ncc4C#N)n(C(C)C)c(=O)c23)cn1"
  Subject Of Test: "PIK3CA (human)"
  Reported: "6.00 to 7.00"

We now examine a further compound.
Entry COc1nc(-c2cnc(N)nc2N[C@@H](C)c2cc3cccc(-c4ccc(=O)n(C)c4)c3c(=O)n2-c2ccccc2)cs1 — recorded pIC50 = < 5.00

###

# Subject Of Test: PIK3CD (Human)
# Test Summary: Assessment of PIK3CD Kinase Activity
pIC50: −log10 of the molar value.
Value Kind: pIC50

Please review the entries below; each comes with its answer.
- Smiles Input: "CNC(=O)c1cnc(N)nc1N[C@@H](C)c1cc2cccc(-c3ccnc(OC)c3)c2c(=O)n1-c1ccccc1"
  Subject Of Test: "PIK3CD (Human)"
  Reported: "> 7.00"
- Smiles Input: "COc1cncc(-c2cccc3cc([C@H](C)Nc4nc(N)ncc4C#N)n(-c4ccccc4)c(=O)c23)n1"
  Subject Of Test: "PIK3CD (Human)"
  Reported: "> 7.00"
- Smiles Input: "COc1ccc(-c2cnc(N)nc2N[C@@H](C)c2cc3cccc(Cl)c3c(=O)n2-c2ccccc2)cn1"
  Subject Of Test: "PIK3CD (Human)"
  Reported: "6.00 to 7.00"
- Smiles Input: "COc1cncc(-c2cccc3cc([C@H](C)Nc4nc(N)ncc4C#N)n(-c4ccccc4)c(=O)c23)c1"
  Subject Of Test: "PIK3CD (Human)"
  Reported: "> 7.00"
- Smiles Input: "CC(C)n1c([C@H](C)Nc2ncnc(N)c2C#N)cc2cccc(-c3ccc(=O)n(C)c3)c2c1=O"
  Subject Of Test: "PIK3CD (Human)"
  Reported: "> 7.00"
- Smiles Input: "C[C@H](Nc1nc(N)ncc1NS(C)(=O)=O)c1cc2cccc(Cl)c2c(=O)n1-c1ccccc1"
  Subject Of Test: "PIK3CD (Human)"
  Reported: "< 5.00"
- Smiles Input: "COc1cc(-c2cccc3cc([C@H](C)Nc4nc(N)ncc4-c4cc(O)cc(F)c4)n(-c4ccccc4)c(=O)c23)ccn1"
  Subject Of Test: "PIK3CD (Human)"
  Reported: "> 7.00"

We now examine a further molecule.
PIK3CD (Human) pIC50 of C[C@H](Nc1nc(N)ncc1C#N)c1cc2cccc(-c3ccc(F)cc3)c2c(=O)n1-c1ccccc1 is > 7.00
